Target: PfIMPα (Plasmodium falciparum, UniProt Q8IAW0)
Sequence (Q8IAW0 1-545): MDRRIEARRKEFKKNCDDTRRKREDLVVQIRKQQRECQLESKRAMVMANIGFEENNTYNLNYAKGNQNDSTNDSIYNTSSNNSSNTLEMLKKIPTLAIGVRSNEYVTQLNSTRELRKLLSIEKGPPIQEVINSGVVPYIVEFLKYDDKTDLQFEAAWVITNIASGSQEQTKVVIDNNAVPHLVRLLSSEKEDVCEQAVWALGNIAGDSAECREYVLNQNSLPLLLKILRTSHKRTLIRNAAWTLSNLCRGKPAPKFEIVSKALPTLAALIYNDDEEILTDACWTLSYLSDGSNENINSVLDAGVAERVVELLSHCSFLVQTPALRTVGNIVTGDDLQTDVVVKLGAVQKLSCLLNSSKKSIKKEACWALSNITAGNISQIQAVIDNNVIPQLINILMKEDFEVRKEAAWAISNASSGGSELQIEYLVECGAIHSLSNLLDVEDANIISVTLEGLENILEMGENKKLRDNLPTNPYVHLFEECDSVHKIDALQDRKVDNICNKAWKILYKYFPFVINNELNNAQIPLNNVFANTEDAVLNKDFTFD
property: IC50 (µM)
The answer is to be given in µM; state only the numeric part.

Please give the documented IC50 of CC(C)(C)c1ccc(S(=O)(=O)/C=C/C#N)cc1
19.9
